Source of measurements: ChEMBL document CHEMBL4342407

- Test system: Rattus norvegicus
- PROTOCOL SUMMARY: Antiinflammatory activity in po dosed Wistar rat assessed as reduction in carrageenan-induced paw edema pretreated for 1 hr followed by carrageenan challenge and measured over 2 to 4 hrs post carrageenan challenge by plethysmography
- Assay type: functional

>  <MOLECULE>
CC(C)Cc1ccc(C(C)C(=O)O)cc1 (stereo unspecified)

>  <VALUE UNITS>
mg/kg

>  <ED50>
19.7

$$$$
>  <MOLECULE>
CN1C(C(=O)Nc2ccccn2)=C(O)c2ccccc2S1(=O)=O

>  <VALUE UNITS>
mg/kg

>  <ED50>
7.8

$$$$
>  <MOLECULE>
CC(=O)NN1C(S)=Nc2sc3c(c2C1c1ccccc1)CCCC3 (stereo unspecified)

>  <VALUE UNITS>
mg/kg

>  <ED50>
66.7

$$$$
>  <MOLECULE>
O=C(NN1C(S)=Nc2sc3c(c2C1c1ccccc1)CCCC3)c1ccccc1 (stereo unspecified)

>  <VALUE UNITS>
mg/kg

>  <ED50>
62.7

$$$$
>  <MOLECULE>
CSC1=[N+](N)C(c2ccccc2)c2c(sc3c2CCCC3)N1.[I-] (stereo unspecified)

>  <VALUE UNITS>
mg/kg

>  <ED50>
72.5

$$$$
>  <MOLECULE>
CC(=O)Oc1ccccc1C(=O)O

>  <VALUE UNITS>
mg/kg

>  <ED50>
69.3

$$$$
